Test: Cytotoxicity, CCK8
Assay type: cell-based
Settings: human, read-out: cell viability LO2

STRUCTURE AS SMILES: C[C@]12CC[C@@H]3c4ccc(OC(=O)N(CCCl)CCCl)cc4CC[C@H]3[C@@H]1CC[C@@H]2O
viability at 12 h, 100 µM / %: 99

====

Assay: Cytotoxicity, CCK8
Type: cell-based
Conditions: human, read-out: cell viability HT293 (293T)

STRUCTURE AS SMILES: C[C@]12CC[C@@H]3c4ccc(OC(=O)N(CCCl)CCCl)cc4CC[C@H]3[C@@H]1CC[C@@H]2O
viability at 12 h, 100 µM [%]: 98
